Each recorded value in this set is attributed to ChEMBL document CHEMBL4196183.

Recorded measurements of fold change (FC), one per entry
# TESTED ON: Urotensin-2 receptor (Homo sapiens) (UniProt Q9UKP6)
# Sequence (whole entry): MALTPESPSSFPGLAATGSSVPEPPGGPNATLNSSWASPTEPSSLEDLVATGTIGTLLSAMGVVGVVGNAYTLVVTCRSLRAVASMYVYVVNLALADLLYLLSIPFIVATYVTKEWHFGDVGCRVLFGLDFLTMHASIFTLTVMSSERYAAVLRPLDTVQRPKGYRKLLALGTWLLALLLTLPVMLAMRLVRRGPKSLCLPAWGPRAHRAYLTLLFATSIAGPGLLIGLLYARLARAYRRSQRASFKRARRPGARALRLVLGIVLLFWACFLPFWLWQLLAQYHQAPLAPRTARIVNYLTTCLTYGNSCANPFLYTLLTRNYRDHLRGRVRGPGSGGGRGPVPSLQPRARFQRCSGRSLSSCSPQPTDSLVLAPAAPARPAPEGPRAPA
# EXPERIMENTAL DETAILS: Bias factor, ratio of deltalog(Tau/KA) for agonist activity at human UT receptor expressed in HEK293 cells co-expressing Gq-polycistronic BRET biosensor assessed as induction of Gq activation by luminescence detection based BRET assay to deltalog(Tau/KA) for agonist activity at human UT receptor expressed in HEK293 cells co-expressing beta-arrestin1-polycistronic BRET biosensor assessed as induction of beta-arrestin1 recruitment by luminescence detection based BRET assay
# Format: functional, cell-based
MEASURED PARAMETER: fold change (FC)

[
  {
    "SMILES": "CC(C)[C@H](NC(=O)[C@@H]1CSSC[C@H](NC(=O)[C@@H](N)CC(=O)O)C(=O)N[C@@H](Cc2ccc(I)cc2)C(=O)N[C@@H](Cc2c[nH]c3ccccc23)C(=O)N[C@@H](CCCCN)C(=O)N[C@@H](Cc2ccc(O)cc2)C(=O)N1)C(=O)O",
    "RECORDED RESULT": 0.8
  },
  {
    "SMILES": "CC(C)[C@H](NC(=O)[C@@H]1CSSC[C@H](NC(=O)[C@H](C)N)C(=O)N[C@@H](Cc2ccc(-c3ccccc3)cc2)C(=O)N[C@@H](Cc2c[nH]c3ccccc23)C(=O)N[C@@H](CCCCN)C(=O)N[C@@H](Cc2ccc(O)cc2)C(=O)N1)C(=O)O",
    "RECORDED RESULT": 2.8
  }
]

---

# TESTED ON: Urotensin-2 receptor (Homo sapiens)
# EXPERIMENTAL DETAILS: Bias factor, ratio of deltalog(Tau/KA) for agonist activity at human UT receptor expressed in HEK293 cells co-expressing Gq-polycistronic BRET biosensor assessed as induction of Gq activation by luminescence detection based BRET assay to deltalog(Tau/KA) for agonist activity at human UT receptor expressed in HEK293 cells co-expressing G12-polycistronic BRET biosensor assessed as induction of G12 activation by luminescence detection based BRET assay
# Format: functional, cell-based
Let's look at some molecules and their measured fold change (FC).

[
  {
    "SMILES": "CC(C)[C@H](NC(=O)[C@@H]1CSSC[C@H](NC(=O)[C@@H](C)N)C(=O)N[C@@H](Cc2ccc(C#Cc3ccccc3)cc2)C(=O)N[C@@H](Cc2c[nH]c3ccccc23)C(=O)N[C@@H](CCCCN)C(=O)N[C@@H](Cc2ccc(O)cc2)C(=O)N1)C(=O)O",
    "fold change (FC)": 0.1
  },
  {
    "SMILES": "CC(C)[C@H](NC(=O)[C@@H]1CSSC[C@H](NC(=O)[C@H](C)N)C(=O)N[C@@H](Cc2ccc(C#Cc3ccccc3)cc2)C(=O)N[C@@H](Cc2c[nH]c3ccccc23)C(=O)N[C@@H](CCCCN)C(=O)N[C@@H](Cc2ccc(O)cc2)C(=O)N1)C(=O)O",
    "fold change (FC)": 0.6
  },
  {
    "SMILES": "CC(C)[C@H](NC(=O)[C@@H]1CSSC[C@H](NC(=O)[C@H](C)N)C(=O)N[C@@H](Cc2ccc(I)cc2)C(=O)N[C@@H](Cc2c[nH]c3ccccc23)C(=O)N[C@@H](CCCCN)C(=O)N[C@@H](Cc2ccc(O)cc2)C(=O)N1)C(=O)O",
    "fold change (FC)": 1.3
  },
  {
    "SMILES": "CC(C)[C@H](NC(=O)[C@@H]1CSSC[C@H](NC(=O)[C@@H](C)N)C(=O)N[C@@H](Cc2ccc(-c3ccccc3)cc2)C(=O)N[C@@H](Cc2c[nH]c3ccccc23)C(=O)N[C@@H](CCCCN)C(=O)N[C@@H](Cc2ccc(O)cc2)C(=O)N1)C(=O)O",
    "fold change (FC)": 0
  },
  {
    "SMILES": "CC(C)[C@H](NC(=O)[C@@H]1CSSC[C@H](NC(=O)[C@@H](C)N)C(=O)N[C@@H](Cc2ccc(I)cc2)C(=O)N[C@@H](Cc2c[nH]c3ccccc23)C(=O)N[C@@H](CCCCN)C(=O)N[C@@H](Cc2ccc(O)cc2)C(=O)N1)C(=O)O",
    "fold change (FC)": 0.1
  }
]

---

# TESTED ON: Urotensin-2 receptor (Rattus norvegicus)
# Sequence (whole entry): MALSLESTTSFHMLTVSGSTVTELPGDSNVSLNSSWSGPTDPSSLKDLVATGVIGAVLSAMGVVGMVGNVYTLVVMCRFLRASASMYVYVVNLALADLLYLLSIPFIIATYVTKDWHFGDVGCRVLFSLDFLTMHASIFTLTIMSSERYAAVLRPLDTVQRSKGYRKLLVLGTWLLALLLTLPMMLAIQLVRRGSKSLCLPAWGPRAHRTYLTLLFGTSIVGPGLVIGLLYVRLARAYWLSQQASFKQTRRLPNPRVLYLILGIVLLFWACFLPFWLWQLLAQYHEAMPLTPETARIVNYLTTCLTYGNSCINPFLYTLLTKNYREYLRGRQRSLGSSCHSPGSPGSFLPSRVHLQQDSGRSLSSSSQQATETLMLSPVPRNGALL
# EXPERIMENTAL DETAILS: Agonist activity at UT receptor in Sprague-Dawley rat thoracic aortic ring assessed as induction of contraction relative to KCl-induced contraction
# Type: functional
Listed compounds paired with reported Emax
MEASURED PARAMETER: Emax (%)

[
  {
    "SMILES": "CC(C)[C@H](NC(=O)[C@@H]1CSSC[C@H](NC(=O)[C@H](C)N)C(=O)N[C@@H](Cc2ccc(-c3ccccc3)cc2)C(=O)N[C@@H](Cc2c[nH]c3ccccc23)C(=O)N[C@@H](CCCCN)C(=O)N[C@@H](Cc2ccc(O)cc2)C(=O)N1)C(=O)O",
    "TESTED ON": "Urotensin-2 receptor (Rattus norvegicus)",
    "MEASURED PARAMETER": "Emax",
    "RECORDED RESULT": 25
  },
  {
    "SMILES": "CC(C)[C@H](NC(=O)[C@@H]1CSSC[C@H](NC(=O)[C@@H](C)N)C(=O)N[C@@H](Cc2ccc(C#Cc3ccccc3)cc2)C(=O)N[C@@H](Cc2c[nH]c3ccccc23)C(=O)N[C@@H](CCCCN)C(=O)N[C@@H](Cc2ccc(O)cc2)C(=O)N1)C(=O)O",
    "TESTED ON": "Urotensin-2 receptor (Rattus norvegicus)",
    "MEASURED PARAMETER": "Emax",
    "RECORDED RESULT": 8
  },
  {
    "SMILES": "CC(C)[C@H](NC(=O)[C@@H]1CSSC[C@H](NC(=O)[C@H](C)N)C(=O)N[C@@H](Cc2ccc(C#Cc3ccccc3)cc2)C(=O)N[C@@H](Cc2c[nH]c3ccccc23)C(=O)N[C@@H](CCCCN)C(=O)N[C@@H](Cc2ccc(O)cc2)C(=O)N1)C(=O)O",
    "TESTED ON": "Urotensin-2 receptor (Rattus norvegicus)",
    "MEASURED PARAMETER": "Emax",
    "RECORDED RESULT": 28
  },
  {
    "SMILES": "CC(C)[C@H](NC(=O)[C@@H]1CSSC[C@H](NC(=O)[C@H](C)N)C(=O)N[C@@H](Cc2ccccc2)C(=O)N[C@@H](Cc2c[nH]c3ccccc23)C(=O)N[C@@H](CCCCN)C(=O)N[C@@H](Cc2ccc(O)cc2)C(=O)N1)C(=O)O",
    "TESTED ON": "Urotensin-2 receptor (Rattus norvegicus)",
    "MEASURED PARAMETER": "Emax",
    "RECORDED RESULT": 107
  }
]

---

# TESTED ON: Urotensin-2 receptor (Homo sapiens) (UniProt Q9UKP6)
# Sequence (whole entry): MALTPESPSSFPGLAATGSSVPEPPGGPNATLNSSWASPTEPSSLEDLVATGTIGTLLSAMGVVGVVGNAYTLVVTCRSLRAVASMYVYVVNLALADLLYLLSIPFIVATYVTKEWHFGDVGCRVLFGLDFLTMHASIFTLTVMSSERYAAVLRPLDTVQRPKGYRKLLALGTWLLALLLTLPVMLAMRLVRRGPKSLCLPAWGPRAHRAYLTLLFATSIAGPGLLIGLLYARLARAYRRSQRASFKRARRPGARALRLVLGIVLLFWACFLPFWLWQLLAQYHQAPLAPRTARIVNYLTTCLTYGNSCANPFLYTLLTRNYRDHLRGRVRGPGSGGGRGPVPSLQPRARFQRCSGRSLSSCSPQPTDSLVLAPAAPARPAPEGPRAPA
# EXPERIMENTAL DETAILS: Bias factor, ratio of deltalog(Tau/KA) for agonist activity at human UT receptor expressed in HEK293 cells co-expressing Gq-polycistronic BRET biosensor assessed as induction of Gq activation by luminescence detection based BRET assay to deltalog(Tau/KA) for agonist activity at human UT receptor expressed in HEK293 cells co-expressing beta-arrestin1-polycistronic BRET biosensor assessed as induction of beta-arrestin1 recruitment by luminescence detection based BRET assay
# Assay type: functional, cell-based
Below: a set of entries, each annotated with reported fold change (FC).
MEASURED PARAMETER: fold change (FC)

[
  {
    "SMILES": "CC(C)[C@H](NC(=O)[C@@H]1CSSC[C@H](NC(=O)[C@@H](C)N)C(=O)N[C@@H](Cc2ccc(I)cc2)C(=O)N[C@@H](Cc2c[nH]c3ccccc23)C(=O)N[C@@H](CCCCN)C(=O)N[C@@H](Cc2ccc(O)cc2)C(=O)N1)C(=O)O",
    "MEASURED PARAMETER": "fold change (FC)",
    "RECORDED RESULT": 0.1
  },
  {
    "SMILES": "CC(C)[C@H](NC(=O)[C@@H]1CSSC[C@H](NC(=O)[C@H](N)CC(=O)O)C(=O)N[C@@H](Cc2ccc(I)cc2)C(=O)N[C@@H](Cc2c[nH]c3ccccc23)C(=O)N[C@@H](CCCCN)C(=O)N[C@@H](Cc2ccc(O)cc2)C(=O)N1)C(=O)O",
    "MEASURED PARAMETER": "fold change (FC)",
    "RECORDED RESULT": 0.2
  }
]
